# TARGET ENTITY: human BCL6 BTB domain (Trx-6xHis-BCL6) (Homo sapiens (Human), UniProt P41182)
# METHOD NOTES: HTRF in vitro assay (BCL6 BTB domain / BCOR-AF633 peptide)
# Format: binding
# MEASUREMENT CONDITIONS: further generated data (Table 1b); 1 nM Trx-6xHis-BCL6, 0.5 nM anti-6xHis-Terbium cryptate
PROPERTY LABEL: HTRF pIC50
No unit in the answer, only the number.

Data request: Tell us which HTRF pIC50 value is on record for C[C@H](Nc1cc(=O)n(C)c2ccc(Nc3cc(C(=O)O)nc(Cl)c3C#N)cc12)C1CC1 [Example 9d]
Data returned: 6.13

Data request: Using known records, supply HTRF pIC50 for C[C@@H]1CN(c2cnc(C(C)(C)Nc3cc(=O)n(C)c4ccc(Nc5ccnc(Cl)c5C#N)cc34)nc2)C[C@H](C)O1 [Example 7a]
Data returned: 7.91

Data request: Determine from records and report HTRF pIC50 for CC(Nc1cc(=O)n(CC2CC2)c2ccc(Nc3ccnc(Cl)c3C#N)cc12)c1ncccn1 (stereo not shown) [Example 11h]
Data returned: 6.65

Data request: Hello, please tell me recorded HTRF pIC50 for this one: Cn1c(=O)cc(NC(C)(C)c2ccccn2)c2cc(Nc3ccnc(Cl)c3C#N)ccc21 [Example 11b]
Data returned: 6.52

---

# TARGET ENTITY: BCL6-NCOR2(SMRT) corepressor protein-protein interaction (Homo sapiens (Human))
# METHOD NOTES: NanoBRET cell assay in transfected HEK293T cells
# Type: cell-based
# MEASUREMENT CONDITIONS: further generated data (Table 2b); HEK293T cells, 6 hr; read-out: NanoBRET cell pIC50 (converted)
PROPERTY LABEL: IC50
Number first, unit second: that is the form wanted.

Data request: Answer with reported IC50 of CN(C)C(=O)C1CCN(c2ncc(Cl)c(Nc3ccc4c(c3)c(NC(C)(C)c3ncccn3)cc(=O)n4C)n2)CC1 [Example 16a]
Data returned: 2.63 µM

Data request: Provide measured IC50 value, entry: COc1ncc(Cl)c(Nc2ccc3c(c2)c(N[C@H](C)C2CC2)cc(=O)n3C)n1 [Example 11e]
Data returned: 3.47 µM

Data request: Tell us which IC50 value is on record for Cc1cc(C)n(-c2ncc(Cl)c(Nc3ccc4c(c3)c(NC(C)c3ncn(C)n3)cc(=O)n4C)n2)n1 (stereo not shown) [Example 14b]
Data returned: 8.32 µM

Data request: Fill in reported IC50 for this entry: COC[C@@H]1CCCN1C(=O)c1cc(Nc2ccc3c(c2)c(N[C@H](C)C2CC2)cc(=O)n3C)c(Cl)cn1 [Example 15a]
Data returned: 2 µM

---

I'd be grateful if you could share measured HTRF pIC50 for these entries.
# TARGET ENTITY: human BCL6 BTB domain (Trx-6xHis-BCL6) (Homo sapiens (Human), UniProt P41182)
# METHOD NOTES: HTRF in vitro assay (BCL6 BTB domain / BCOR-AF633 peptide)
# Format: binding
# MEASUREMENT CONDITIONS: further generated data (Table 1b); 1 nM Trx-6xHis-BCL6, 0.5 nM anti-6xHis-Terbium cryptate
Write no unit; give the number alone.

Data request: Recall and state the measured HTRF pIC50 for C[C@@H](Nc1nc(=O)n(C)c2ccc(Nc3ccnc(Cl)c3Cl)cc12)C1CC1 [Example 6d] .
Data returned: 6.09

Data request: Provide measured HTRF pIC50 value, entry: CC(Nc1cc(=O)n(C)c2ccc(Nc3ccnc(Cl)c3C#N)cc12)c1ncc(C2CCOCC2)cn1 (centres unmarked) [Example 10w]
Data returned: 7.58

Data request: Using known records, supply HTRF pIC50 for Cn1c(=O)cc(NC(C)(C)c2ncc(C3CC3)cn2)c2cc(Nc3cc(C(=O)O)nc(Cl)c3C#N)ccc21 [Example 9a]
Data returned: 7.74

Data request: // Input: COc1ncc(Cl)c(Nc2ccc3c(c2)c(N[C@H](C)C2CC2)cc(=O)n3C)n1 [Example 11e] . Output its HTRF pIC50 only.
Data returned: 6.20

Data request: Using the record for C[C@@H](Nc1cc(=O)n(C)c2ccc(Nc3cc(N4CCC(C(=O)N(C)C)CC4)ncc3Cl)cc12)C1CC1 [Example 6i] , state its measured HTRF pIC50.
Data returned: 6.35

Data request: # return recorded HTRF pIC50 for input CC(Nc1nc(=O)n(C)c2ccc(Nc3nc(N4C[C@H](C)C[C@H](C)C4)ncc3Cl)cc12)c1ncccn1 (some centres unmarked) [Example 12e]
Data returned: 6.58

Data request: Output measured HTRF pIC50 for this item: CNC(=O)c1cc(Nc2ccc3c(c2)c(NC(C)(C)COC)cc(=O)n3C)c(C#N)c(Cl)n1 [Example 7d]
Data returned: 6.85

Data request: State its HTRF pIC50 for this compound: CC(Nc1cc(=O)n(CC2CC2)c2ccc(Nc3ccnc(Cl)c3Cl)cc12)c1ncccn1 (centres unmarked) [Example 6g]
Data returned: 6.25

---

# TARGET ENTITY: human BCL6 BTB domain (Trx-6xHis-BCL6) (Homo sapiens (Human))
# METHOD NOTES: HTRF in vitro assay (BCL6 BTB domain / BCOR-AF633 peptide)
# Assay type: binding
# MEASUREMENT CONDITIONS: further generated data (Table 1b); 1 nM Trx-6xHis-BCL6, 0.5 nM anti-6xHis-Terbium cryptate
PROPERTY LABEL: HTRF pIC50

Data request: Using the record for CC(Nc1cc(=O)n(C)c2ccc(Nc3nc(NCc4cccnc4)ncc3Cl)cc12)c1ncccn1 (stereo not shown) [Example 17f] , state its measured HTRF pIC50.
Data returned: 6.32

Data request: Provide only the value of recorded HTRF pIC50 for CC(Nc1cc(=O)n(C)c2ccc(Nc3cc(-n4cc(CCO)cn4)ncc3Cl)cc12)c1ncccn1 (stereo not shown) [Example 15i]
Data returned: 6.58

Data request: Indicate the recorded HTRF pIC50 value for this compound: COC[C@@H]1CCCN1C(=O)c1cc(Nc2ccc3c(c2)c(N[C@H](C)C2CC2)cc(=O)n3C)c(Cl)cn1 [Example 15a]
Data returned: 6.59

Data request: Supply measured HTRF pIC50 of CCOC(=O)c1cc(Nc2ccc3c(c2)c(NC(C)c2ncccn2)cc(=O)n3C)n2nccc2n1 (stereo not shown) [Example 10q] in your reply.
Data returned: 6.44

Data request: Note down HTRF pIC50 recorded for C[C@@H](Nc1nc(=O)n(C)c2ccc(Nc3ccnc(Cl)c3C#N)cc12)C1CC1 [Example 10m]
Data returned: 6.66

Data request: Identify HTRF pIC50 associated with the compound CC(Nc1nc(=O)n(C)c2ccc(Nc3ccnc(Cl)c3Cl)cc12)c1ncccn1 (stereo not shown) [Example 6c]
Data returned: 6.57

Data request: Return the recorded HTRF pIC50 value; entry: CNC(=O)c1cc(Nc2ccc3c(c2)c(NC2(C#N)CC2)cc(=O)n3C)c(C#N)c(Cl)n1 [Example 24a]
Data returned: 6.84

Data request: Item Cc1n[nH]c(C(C)Nc2cc(=O)n(C)c3ccc(Nc4ccnc(Cl)c4C#N)cc23)n1 (stereo not shown) [Example 3c] : provide HTRF pIC50
Data returned: 6.50

Data request: Quickly give me recorded HTRF pIC50 for C[C@@H](Nc1cc(=O)n(C)c2ccc(Nc3ccnc(Cl)c3C#N)cc12)C(=O)NCCO [Example 3b]
Data returned: 6.57

Data request: Consider the compound CC(Nc1cc(=O)n(C)c2ccc(Nc3cc(C(=O)O)nc(Cl)c3C#N)cc12)c1ncc(C2CC2)cn1 (stereo not shown) [Example 9p] . State its measured HTRF pIC50.
Data returned: 7.25

Data request: Note down HTRF pIC50 recorded for CCNc1cc(=O)n(CCN2C(=O)CCC2=O)c2ccc(Nc3ccnc(Cl)c3C#N)cc12 [Example 1r]
Data returned: 6.25

Data request: Name the recorded HTRF pIC50 of the compound listed here: CC(Nc1cc(=O)n(CC2CCCCC2)c2ccc(Nc3ccnc(Cl)c3C#N)cc12)c1ncccn1 (stereo not shown) [Example 10v]
Data returned: 6.17

Data request: Tell me HTRF pIC50 reported for CC(Nc1cc(=O)n(CCO)c2ccc(Nc3ccnc(Cl)c3C#N)cc12)c1ncccn1 (stereo not shown) [Example 11j]
Data returned: 6.83

Data request: Give the measured HTRF pIC50 for CC(Nc1cc(=O)n(C)c2ccc(Nc3ccnc(Cl)c3C#N)cc12)c1ncc(Br)cn1 (stereo not shown) [Example 10j]
Data returned: 6.92

Data request: Return HTRF pIC50 for the following compound: Cn1c(=O)cc(NC(C)(C)c2ncccn2)c2cc(Nc3ccnc(Cl)c3C#N)cnc21 [Example 1x]
Data returned: 7.20

Data request: Identify measured HTRF pIC50 corresponding to Cn1c(=O)cc(NC2(C)CCCC2)c2cc(Nc3cc(C(=O)O)nc(Cl)c3C#N)ccc21 [Example 2d]
Data returned: 6.65
